# Test system: Enterococcus sp.
# ASSAY SUMMARY: in vitro antibacterial evaluation, MIC by broth dilution
# Format: cell-based
# MEASUREMENT CONTEXT: broth dilution, 18 hours at 35° C.
Measured MIC Enterococcus faecalis (GC 4553) accompanies every entry in the list below.
Lab book: enter the figure in µg/mL, no units written.

Some compounds with known MIC Enterococcus faecalis (GC 4553) results, for comparison:
[[record]]
compound = "CC(C)=CCN1CC(C(O)C2NC(=O)C(C(O)C3CNC(=N)N3)NC(=O)C(Cc3ccc(OC4OC(CO)C(OC5OC6COC7(OC6C(O)C5O)C5CC6CC(C5)CC7C6)C(O)C4O)cc3)NC(=O)C(C(C)c3ccccc3)NC(=O)CNC(=O)C(CO)NC2=O)N(C2OC(CO)C(O)C(O)C2O)C1=N (centres unmarked)"
readout_label = "MIC Enterococcus faecalis (GC 4553)"
unit_descriptor = "µg/mL"
assay_result = 4

[[record]]
compound = "CCCC(CCC)C(=O)OCC1OC(Oc2ccc(CC3NC(=O)C(C(C)c4ccccc4)NC(=O)CNC(=O)C(CO)NC(=O)C(C(O)C4CNC(=N)N4C4OC(CO)C(O)C(O)C4O)NC(=O)C(C(O)C4CNC(=N)N4)NC3=O)cc2)C(O)C(O)C1OC1OC(CO)C(O)C(O)C1O (centres unmarked) [Example 99b]"
readout_label = "MIC Enterococcus faecalis (GC 4553)"
unit_descriptor = "µg/mL"
assay_result = 16

[[record]]
compound = "CC(C)CC(=O)OC1C(O)C(OC2C(CO)OC(Oc3ccc(CC4NC(=O)C(C(C)c5ccccc5)NC(=O)CNC(=O)C(CO)NC(=O)C(C(O)C5CNC(=N)N5C5OC(CO)C(O)C(O)C5O)NC(=O)C(C(O)C5CNC(=N)N5)NC4=O)cc3)C(O)C2O)OC2COC3(OC21)C1CC2CC(C1)CC3C2 (centres unmarked)"
readout_label = "MIC Enterococcus faecalis (GC 4553)"
unit_descriptor = "µg/mL"
assay_result = 4


Next:
(Q) Reported MIC Enterococcus faecalis (GC 4553) for CC(c1ccccc1)C1NC(=O)CNC(=O)C(CO)NC(=O)C(C(O)C2CNC(=N)N2C2OC(CO)C(O)C(O)C2O)NC(=O)C(C(O)C2CNC(=N)N2)NC(=O)C(Cc2ccc(OC3OC(CO)C(OC4OC5COC(c6ccc(C(=O)c7cc(I)c(I)c(I)c7)cc6)OC5C(O)C4O)C(O)C3O)cc2)NC1=O (centres unmarked) : what is it?
(A) 32

----------
# System: Streptococcus sp.
# ASSAY SUMMARY: in vitro antibacterial evaluation, MIC by broth dilution
# Type: cell-based
# MEASUREMENT CONTEXT: Streptococcus pyogenes (GC 4563); broth dilution, 18 hours at 35° C.
Measured MIC Streptococcus pyogenes (GC 4563) accompanies every entry in the list below.

[[record]]
compound = "CC(c1ccccc1)C1NC(=O)CNC(=O)C(CO)NC(=O)C(C(O)C2CNC(=N)N2C2OC(CO)C(O)C(O)C2O)NC(=O)C(C(O)C2CNC(=N)N2)NC(=O)C(Cc2ccc(OC3OC(CO)C(OC4OC5COC(c6ccc7c(c6)OCO7)OC5C(O)C4O)C(O)C3O)cc2)NC1=O (stereo not shown) [Example 143]"
assay_result = "0.25 to 1 µg/mL"

[[record]]
compound = "CC(c1ccccc1)C1NC(=O)CNC(=O)C(CO)NC(=O)C(C(O)C2CNC(=N)N2C2OC(CO)C(O)C(O)C2O)NC(=O)C(C(O)C2CNC(=N)N2)NC(=O)C(Cc2ccc(OC3OC(CO)C(OC4OC5COC(c6ccsc6)OC5C(O)C4O)C(O)C3O)cc2)NC1=O (stereo not shown) [Example 133]"
assay_result = "<0.5 µg/mL"

[[record]]
compound = "CC(c1ccccc1)C1NC(=O)CNC(=O)C(CO)NC(=O)C(C(O)C2CNC(=N)N2C2OC(CO)C(O)C(O)C2O)NC(=O)C(C(O)C2CNC(=N)N2)NC(=O)C(Cc2ccc(OC3OC(CO)C(OC4OC5COC(Cc6ccc(Cl)cc6)OC5C(O)C4O)C(O)C3O)cc2)NC1=O (stereo not shown) [Example 120]"
assay_result = "<0.5 µg/mL"


(Q) Reported MIC Streptococcus pyogenes (GC 4563) for CC(c1ccccc1)C1NC(=O)CNC(=O)C(CO)NC(=O)C(C(O)C2CNC(=N)N2C2OC(CO)C(O)C(O)C2O)NC(=O)C(C(O)C2CNC(=N)N2)NC(=O)C(Cc2ccc(OC3OC(CO)C(OC4OC5COC(CC67CC8CC(CC(C8)C6)C7)OC5C(O)C4O)C(O)C3O)cc2)NC1=O (stereo not shown) [Example 129] : what is it?
(A) <0.06 µg/mL

----------
# Test system: Staphylococcus sp.
# ASSAY SUMMARY: in vitro antibacterial evaluation, MIC by broth dilution
# Assay type: cell-based
# MEASUREMENT CONTEXT: strain GC 4548; broth dilution, 18 hours at 35° C.
# Source text: Methods for in vitro Antibacterial Evaluation (Table 1) […]
Numbered stars: 1 amine (or outer) side, 2 acyl side, 3 side chain; on linkers, the order of the positions; unused ones are H or OH. Square brackets hold non-standard residues; d marks the D form. Peptide text beside a SMILES is read from it. * marks the point of attachment. ξ: configuration not given here. X1 = N=C1NCC(C(O)C(N[*:1])C(=O)[*:2])N1C1OC(CO)C(O)C(O)C1O; ξEnduracididine(βξ-OH,4'ξ) = N=C1NCC(C(O)C(N)C(=O)O)N1; X2 = OCC1OC(OC2C(CO)OC(*)C(O)C2O)C(O)C(O)C1O; ξCha(3ξ-Me) = CC(C1CCCCC1)C(N)C(=O)O
READOUT LABEL: MIC Coagulase Negative Staphylococcus (GC 4548) (µg/mL)
Lab book: enter the figure in µg/mL, no units written.

Some compounds with known MIC Coagulase Negative Staphylococcus (GC 4548) results, for comparison:
[[record]]
compound = "CC(c1ccccc1)C1NC(=O)CNC(=O)C(CO)NC(=O)C(CC2CNC(=N)N2C2OC(CO)C(O)C(O)C2O)NC(=O)C(CC2CNC(=N)N2)NC(=O)C(Cc2ccc(OC3OC(CO)C(OC4OC5COC(c6ccc(OCc7ccccc7)cc6)OC5C(O)C4O)C(O)C3O)cc2)NC1=O (centres unmarked) [Example 191]"
assay_result = 4

[[record]]
compound = "CC(C1CCCCC1)C1NC(=O)CNC(=O)C(CO)NC(=O)C(C(O)C2CNC(=N)N2C2OC(CO)C(O)C(O)C2O)NC(=O)C(C(O)C2CNC(=N)N2)NC(=O)C(Cc2ccc(OC3OC(CO)C(OC4OC(CO)C(O)C(O)C4O)C(O)C3O)cc2)NC1=O (stereo not drawn) [Example 51] (cyclo(G[ξCha(3ξ-Me)]Y(X2)[ξEnduracididine(βξ-OH,4'ξ)][X1]S); configuration not given here)"
assay_result = 16

[[record]]
compound = "CC(c1ccccc1)C1NC(=O)CNC(=O)C(CO)NC(=O)C(C(O)C2CN(Cc3ccc(C(C)(C)C)cc3)C(=N)N2C2OC(CO)C(O)C(O)C2O)NC(=O)C(C(O)C2CNC(=N)N2)NC(=O)C(Cc2ccc(OC3OC(CO)C(OC4OC5COC6(OC5C(O)C4O)C4CC5CC(C4)CC6C5)C(O)C3O)cc2)NC1=O (centres unmarked) [Example 77]"
assay_result = 4

[[record]]
compound = "N=C1NCC(C(O)C2NC(=O)C(Cc3ccc(OC4OC(CO)C(OC5OC6COC(c7ccccc7)OC6C(O)C5O)C(O)C4O)cc3)NC(=O)C(CC3CCCCC3)NC(=O)CNC(=O)C(CO)NC(=O)C(C(O)C3CNC(=N)N3C3OC(CO)C(O)C(O)C3O)NC2=O)N1 (centres unmarked) [Example 199]"
assay_result = 0.5

[[record]]
compound = "CC(C)CC(=O)OC1C(O)C(OC2C(CO)OC(Oc3ccc(CC4NC(=O)C(C(C)c5ccccc5)NC(=O)CNC(=O)C(CO)NC(=O)C(C(O)C5CNC(=N)N5C5OC(CO)C(O)C(O)C5O)NC(=O)C(C(O)C5CNC(=N)N5)NC4=O)cc3)C(O)C2O)OC2COC3(OC21)C1CC2CC(C1)CC3C2 (centres unmarked) [Example 218]"
assay_result = 4


(Q) Reported MIC Coagulase Negative Staphylococcus (GC 4548) for CC(C)=CCCC(C)=CCN=C1NCC(C(O)C2NC(=O)C(C(O)C3CNC(=N)N3)NC(=O)C(Cc3ccc(OC4OC(CO)C(OC5OC6COC7(OC6C(O)C5O)C5CC6CC(C5)CC7C6)C(O)C4O)cc3)NC(=O)C(C(C)c3ccccc3)NC(=O)CNC(=O)C(CO)NC2=O)N1C1OC(CO)C(O)C(O)C1O (centres unmarked) [Example 82] : what is it?
(A) 4

(Q) Reported MIC Coagulase Negative Staphylococcus (GC 4548) for CC(c1ccccc1)C1NC(=O)CNC(=O)C(CO)NC(=O)C(C(O)C2CNC(=N)N2C2OC(CO)C(O)C(O)C2O)NC(=O)C(C(O)C2CNC(=N)N2)NC(=O)C(Cc2ccc3oc(-c4cccc([N+](=O)[O-])c4)nc3c2)NC1=O (centres unmarked) [Example 26] : what is it?
(A) 16

(Q) Reported MIC Coagulase Negative Staphylococcus (GC 4548) for CC(C1CCCCC1)C1NC(=O)CNC(=O)C(CO)NC(=O)C(C(O)C2CNC(=N)N2C2OC(CO)C(O)C(O)C2O)NC(=O)C(C(O)C2CNC(=N)N2)NC(=O)C(Cc2ccc(OC3OC(CO)C(OC4OC5COC(c6ccccc6)OC5C(O)C4O)C(O)C3O)cc2)NC1=O (centres unmarked) [Example 201] : what is it?
(A) 0.25

(Q) Reported MIC Coagulase Negative Staphylococcus (GC 4548) for CC(c1ccccc1)C1NC(=O)CNC(=O)C(CO)NC(=O)C(C(O)C2CNC(=N)N2C2OC(CO)C(O)C(O)C2O)NC(=O)C(C(O)C2CNC(=N)N2)NC(=O)C(Cc2ccc3oc(SCc4ccccc4)nc3c2)NC1=O (centres unmarked) [Example 45] : what is it?
(A) 8

(Q) Reported MIC Coagulase Negative Staphylococcus (GC 4548) for CC(c1ccccc1)C1NC(=O)CNC(=O)C(CO)NC(=O)C(CC2CN(Cc3ccccc3)C(=N)N2C2OC(CO)C(O)C(O)C2O)NC(=O)C(CC2CNC(=N)N2)NC(=O)C(Cc2ccc(OC3OC(CO)C(OC4OC5COC6(OC5C(O)C4O)C4CC5CC(C4)CC6C5)C(O)C3O)cc2)NC1=O (centres unmarked) [Example 80] : what is it?
(A) 32

(Q) Reported MIC Coagulase Negative Staphylococcus (GC 4548) for CC(c1ccccc1)C1NC(=O)CNC(=O)C(CO)NC(=O)C(C(O)C2CNC(=N)N2C2OC(CO)C(O)C(O)C2O)NC(=O)C(C(O)C2CNC(=N)N2)NC(=O)C(Cc2ccc(O)c(NC(=S)Nc3cc(C(F)(F)F)cc(C(F)(F)F)c3)c2)NC1=O (centres unmarked) [Example 24] : what is it?
(A) 64
